# System: Chordin-like protein 2 (CHRDL2)
# protocol.summary: CHRDL2 small-molecule binders, primary screen, biochemical, small-molecule microarray, 635 nm fluorescence (AID 1126);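 also: printed compound slides probed with Chrdl2 protein at 4 µg/mL for 1 h at 4 C; score merges 667 nm emission intensity with signal to noise over three replicate slides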
# study.conditions: small-molecule microarray binding, fluorescence 635 nm; higher = more signal
In this section, each of the compounds is paired with its reported composite z-score.
Reply with the value as a number alone.

CCCCC=C[C@@H](NC(=O)c1cccs1)c1ccccc1 = -0.406
CCCCCN1CC=CC23O[C@@H]4/C=C\CCC(C)OC(=O)C4[C@H]2C(=O)N(CCCCCO)[C@@H]3C1=O (stereo partly drawn) = -0.793
CCCCC(O)C1C=CC2C(=O)N(C3CCCCC3)C(=O)C2N1Nc1ccc(OC)cc1 (stereo not drawn) = -0.135
CN1C(=O)C2C(C1=O)C1C=C(CCCO)C2C(c2cccs2)N1C (stereo not drawn) = -0.0999
C=CC[C@@]1(C(=O)N2CCOCC2)N=C(c2ccc(OCCCO)cc2)O[C@@H]1c1ccccc1N=[N+]=[N-] = -0.142
COc1cc2c(cc1OC)CN(C(=O)[C@@H]1[C@H]3C(=O)O[C@H](c4ccccc4)[C@H](c4ccccc4)N3[C@H](c3ccccc3OCCO)[C@@]13C(=O)Nc1ccc(C#CCNC(N)=O)cc13)CC2 = 0.981

Reported composite z-score for CC(C)CNC(=O)[C@@H]1c2ccccc2C(=O)N(Cc2cc(C(F)(F)F)cc(C(F)(F)F)c2)[C@H]1c1ccc(CO)cc1 was -0.629

Given item C=CC[C@@H](OC(=O)Nc1ccc(OC)cc1)c1ccc(O)c2ccccc12 , the value recorded as its composite z-score is 1.34

====

We begin with a simple list: items and their reported composite z-score.
# Test system: Chordin-like protein 2 (CHRDL2)
# protocol.summary: CHRDL2 small-molecule binders, primary screen, biochemical, small-molecule microarray, 635 nm fluorescence (AID 1126);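 also: printed compound slides probed with Chrdl2 protein at 4 µg/mL for 1 h at 4 C; score merges 667 nm emission intensity with signal to noise over three replicate slides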
# study.conditions: small-molecule microarray binding, fluorescence 635 nm; higher = more signal
Number only, please.

CN(C)C(=O)[C@]1(CCC(=O)OC(C)(C)C)N=C(c2ccc(OCCCO)cc2)O[C@@H]1c1ccccc1N=[N+]=[N-] = -0.516
CCOC(=O)C[C@H]1[C@H](OC(=O)c2ccc(-c3ccccc3)cc2)[C@@H](NC(=O)Cc2ccc(OC)cc2)c2cc(OCCCO)ccc2N1C(=O)c1ccc2ccccc2n1 = -0.62
CN1CCC(CCCO)=CC1c1ccc(CN2CCCC2)cc1 (stereo not given) = 1.5
O=C1O[C@H](c2ccccc2)[C@H](c2ccccc2)N2[C@H]1[C@@H](C(=O)N1CCN(c3ncccn3)CC1)[C@]1(C(=O)Nc3ccccc31)[C@H]2c1ccc(OCCO)cc1 = 0.602
O=C1O[C@@H](c2ccccc2)[C@@H](c2ccccc2)N2[C@@H](c3ccc(OCCO)cc3)[C@]3(C(=O)Nc4ccccc43)[C@@H](C(=O)Nc3nc4ccccc4s3)[C@H]12 = 0.477

The compound C=CCC(OC(C)=O)[C@@H]1[C@@H](N(Cc2ccc(-c3ccccc3)cc2)C(=O)Cc2ccc(F)cc2)c2cc(OCCCO)ccc2N1C(=O)c1ccc2ccccc2n1 (stereo not given in full) , when measured on Chordin-like protein 2 (CHRDL2), yielded composite z-score of 0.255

Observed composite z-score on Chordin-like protein 2 (CHRDL2), entry CCCCC(CC)C(O)C1C=CC2C(=O)N(c3ccccc3)C(=O)C2N1Nc1ccccc1 (stereo not given) , equals -0.804

Entry CC(C)(C)OC(=O)CC[C@@]1(C(=O)O)N=C(c2ccc(OCCCO)cc2)O[C@@H]1c1ccccc1N=[N+]=[N-] , Chordin-like protein 2 (CHRDL2) data, composite z-score value: -0.734

composite z-score value, target or system Chordin-like protein 2 (CHRDL2), for COCCCNC(=O)[C@@]1(CCC(=O)OC(C)(C)C)N=C(c2ccc(OCCCO)cc2)O[C@H]1c1ccccc1CN=[N+]=[N-] : -0.105

====

# protocol.summary: Plasmodium falciparum growth inhibition, primary screen, strain 3D7, DAPI fluorescence, 100 nL (AID 1184);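 also: parasites grown inside human red blood cells in medium with human serum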
# study.conditions: P. falciparum 3D7 growth, 3 d, higher = more signal
Assign class by z-score: not lower than 0.2 means true; lower than 0.2 means false.

Before answering, review these 3 worked examples.
NC(=O)NCC#Cc1ccc2c(c1)[C@]1(C(=O)N2)[C@H](C(=O)NC[C@H](O)c2ccccc2)[C@H]2C(=O)O[C@H](c3ccccc3)[C@H](c3ccccc3)N2[C@@H]1c1ccc(O)cc1 = true
CN1C(=O)C2C=CC(C(O)c3ccccn3)N(Nc3ccccc3)C2C1=O (stereo unspecified) = false
COCCOC(=O)N1C(=O)[C@@]2(c3cc(C#CCNC(N)=O)ccc31)[C@H](c1ccc(OCCO)cc1)N1[C@H](c3ccccc3)[C@H](c3ccccc3)OC(=O)[C@H]1[C@@H]2C(=O)N1CCc2cc(OC)c(OC)cc2C1 = false

Enquiry: Decide: z-score of CC1CC/C=C\[C@H]2OC34C=CCN(Cc5ccccc5)C(=O)[C@H]3N(CCCCCO)C(=O)[C@@H]4C2C(=O)O1 (stereo partly specified) >= 0.2?
Return: true

Enquiry: Threshold query (z-score >= 0.2) on NCCCCCNC(=O)[C@H]1C[C@H]2C(=O)NCC(=O)N2[C@H]1c1cccc(OCCO)c1
Return: true

Enquiry: Tell me whether z-score is at least 0.2 here: COC(=O)[C@@]1(Cc2ccc(OC)cc2)[C@H]2c3cc(C(=O)N(C)C)n(Cc4c(OC)[nH]cc(C)c4=O)c3C[C@H]2CN1C(=O)c1ccccc1
Return: false

====

# target.under.test: Left-right determination factor 2 (Homo sapiens) (UniProt O00292)
# Sequence (O00292 whole entry, looked up): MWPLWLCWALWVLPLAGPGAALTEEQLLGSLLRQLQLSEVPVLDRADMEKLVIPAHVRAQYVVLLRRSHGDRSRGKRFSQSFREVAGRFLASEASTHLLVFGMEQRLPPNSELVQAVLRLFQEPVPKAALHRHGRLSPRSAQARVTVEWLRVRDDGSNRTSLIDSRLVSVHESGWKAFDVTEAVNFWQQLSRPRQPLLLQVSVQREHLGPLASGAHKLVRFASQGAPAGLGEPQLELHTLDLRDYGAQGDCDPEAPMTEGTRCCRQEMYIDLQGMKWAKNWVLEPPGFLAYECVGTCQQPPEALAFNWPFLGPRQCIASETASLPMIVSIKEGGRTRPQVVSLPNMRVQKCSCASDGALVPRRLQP
# protocol.summary: LEFTY2 binders on small-molecule microarrays, primary screen, biochemical, small-molecule microarray, 635 nm fluorescence scan (AID 1110)
# study.conditions: LEFTY2 binding, higher = more signal
// composite z-score lookup, one value per entry
Lab note: record the figure alone, no unit after it.

For orientation, consider the following solved cases.
COc1ccc(C(O)C2C=CC3C(=O)N(c4ccccc4)C(=O)C3N2Nc2ccc([N+](=O)[O-])cc2)cc1OCc1ccccc1 (centres undefined) = 0.0921
C[C@H]1NC(=O)[C@H](Cc2ccccc2)NC(=O)[C@@]23C(=O)N[C@@H](Cc4ccccc4)C2[C@H](C)[C@@]2(C)O[C@H]2C3/C=C/C/C=C\CNC1=O (some centres undefined) = 0.133
CC(=O)C1=CCC(c2ccccc2)N(S(=O)(=O)c2ccc(C)cc2)C1 (centres undefined) = 0.034

# ---- query compound ----
For this compound ( [N-]=[N+]=Nc1ccccc1[C@H]1OC(c2ccc(OCCCO)cc2)=N[C@@]1(CCS(=O)(=O)c1ccccc1)C(=O)O ), measured composite z-score is -0.512

====

# target.under.test: Dickkopf-related protein 1 (Homo sapiens)
# protocol.summary: DKK1 binders on small-molecule microarrays, primary screen, biochemical, small-molecule microarray, 635 nm fluorescence scan (AID 1106);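 also: score merges emission near 667 nm with signal to noise over three replicate slides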
# study.conditions: DKK1 binding, higher = more signal
composite z-score of -0.09 or higher: fulfilled. Under -0.09: not fulfilled.

COCCOC(=O)N1C(=O)[C@@]2(c3cc(C#CCCO)ccc31)[C@H](c1ccccc1OCCO)N1[C@H](c3ccccc3)[C@H](c3ccccc3)OC(=O)[C@H]1[C@@H]2C(=O)N1CCN(c2ncccn2)CC1 = fulfilled
[N-]=[N+]=NCc1ccccc1C[C@]1(C(=O)O)N=C(c2ccc(OCCCO)cc2)O[C@H]1c1ccccc1 = not fulfilled
COc1ccc(CCN2C(=O)[C@@]3(Cc4ccccc42)c2ccccc2C(=O)N(Cc2ccccc2Cl)[C@H]3c2ccc(CO)cc2)cc1 = not fulfilled
CCOc1cc(C(O)C2C=CC3C(=O)N(c4ccccc4)C(=O)C3N2Nc2ccc([N+](=O)[O-])cc2)ccc1O (centres undefined) = fulfilled
COCCOC(=O)N1C(=O)[C@@]2(c3cc(C#CCNC(N)=O)ccc31)[C@H](c1ccc(O)cc1)N1[C@H](c3ccccc3)[C@H](c3ccccc3)OC(=O)[C@H]1[C@@H]2C(=O)Nc1nc2ccccc2s1 = fulfilled

Enquiry: In plain terms: is recorded composite z-score at least -0.09 for CCOC(=O)C[C@H]1[C@H](OC(=O)c2ccc(-c3ccccc3)cc2)[C@@H](NC(=O)c2ccc(-c3ccccc3)cc2)c2cc(OCCCO)ccc2N1C(=O)Cc1ccc(OC)cc1 ?
Return: fulfilled

Enquiry: Quick check: does COC(=O)[C@@]1(Cc2ccc(F)cc2)[C@H]2c3cc(C(=O)N(C)C)n(CCc4ccccn4)c3C[C@H]2CN1C(=O)c1ccccc1 have composite z-score greater than or equal to -0.09?
Return: fulfilled

====

# System: wheat germ agglutinin (Triticum aestivum), Alexa647-labelled
# protocol.summary: wheat germ agglutinin binders on compound microarrays, profiling panel, artefact control for SMM control-protein annotation, biochemical, small-molecule microarray, 635/667 nm fluorescence (AID 1140);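 also: score merges 667 nm feature emission with signal to noise over triplicate slides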
# study.conditions: WGA-A647 binding, 635 nm fluorescence, higher = more signal
measured.parameter: composite z-score
Lab note: jot down the number only; don't add units.

Cc1ccc(F)cc1S(=O)(=O)N[C@@H]1CCN(Cc2ccc(-c3ccccc3)cc2)C1 = -0.108
CO[C@H]1O[C@H](CO)[C@@H](OC(=O)Nc2ccc3c(c2)OCO3)[C@H](OC(=O)Nc2ccccc2)[C@H]1OC(=O)Nc1ccccc1 = 0.928
O=C1N(CCS(=O)(=O)c2ccccc2)Cc2ccccc2C[C@]12N=C(c1ccc(OCCCO)cc1)O[C@@H]2c1ccccc1 = 1.13
CC(=O)C1=CCC(c2ccccc2)N(S(=O)(=O)c2ccc(C)cc2)C1 (configuration not stated) = 1.21
C=CCNC(=O)[C@@H]1[C@H]2C(=O)O[C@H](c3ccccc3)[C@H](c3ccccc3)N2[C@H](c2ccccc2OCCO)[C@@]12C(=O)Nc1ccc(C#CC3=CCCCC3)cc12 = 0.971

Record COCCOC(=O)N1C(=O)[C@@]2(c3cc(C#CCCO)ccc31)[C@H](c1ccc(O)cc1)N1[C@H](c3ccccc3)[C@H](c3ccccc3)OC(=O)[C@H]1[C@@H]2C(N)=O . Reported composite z-score: 0.0204

// field: composite z-score; key: COC(=O)[C@@]1(Cc2ccccc2N=[N+]=[N-])COC(c2ccc(OCCCO)cc2)=N1 ; value = 0.439

Reference source: PubChem BioAssay
